- Tested on: NCI-H460 lung
- measurementDescription: NCI-60 one-dose screen, 48 h
- runConditions: 10 µM unless noted
- Experimental: Growth inhibition of the NCI-H460 human Non-Small Cell Lung tumor cell line is measured as a screen for anti-cancer activity. Cells are grown in 96 well plates and exposed to the test compound for 48 hours. Compounds are tested at a single concentration, which is 10^-5 M for most compounds. The reported endpoint is percent growth (GI% or GIPRCNT), where numbers from 0 - 100% represent growth inhibition, and numbers from -100% - 0 represent cell death. […]
About 83,000 compounds went through this panel and 20% of them were active in at least one assay; those are over-represented in the sample as a whole. Calls of active or inactive are those of the source. Rule for the calls: active = growth percent below 10; inactive = the rest.
Please answer using one outcome listed in True = active, False = inactive

FC(F)(F)c1cccc(-c2cn3c(ccc4ccccc43)n2)c1; False
Cc1[nH]c2ccc(F)cc2c1CCNC(=O)C1CCN(C(=O)c2ccccc2)C1 (stereo not given); False
C/C(=N/NC(=S)Nc1ccccc1)c1nc2ccc(Cl)cc2[nH]1; True

Challenge: // outcome(item) with item = CC(C)(C)c1[nH]nc2c1C(c1cc3ccccc3[nH]c1=O)Nc1cc(C(=O)Nc3ccc(Cl)cc3)ccc1N2 (stereo not given)
Response given: False

Challenge: // outcome(item) with item = Cn1c(=O)cc(NC(=O)CN2CCN(c3cc4c(cc3F)c(=O)c(C(=O)O)cn4C3CC3)CC2)[nH]c1=O
Response given: False

Challenge: // outcome(item) with item = C=C[C@@H]1C[C@@H]2Cc3cc(Cl)ccc3N1O2
Response given: False

Challenge: // outcome(item) with item = Cc1cc(C)n(-c2nnc3n2N=C(c2ccc(-c4ccccc4)cc2)CS3)n1
Response given: False

Challenge: // outcome(item) with item = C=C(C)[C@@H]1C[C@@H]2Cc3ccc(Cl)c(C)c3N1O2
Response given: False

Challenge: // outcome(item) with item = Cc1ccc(-c2csc(NC(=O)CCCCl)n2)cc1
Response given: False

Challenge: // outcome(item) with item = COc1ccc(-n2c(=S)sc3c(Cl)nc(C)nc32)c(OC)c1
Response given: True

* * *

- System: DU-145 prostate
- measurementDescription: NCI-60 one-dose screen, 48 h (100 = growth as untreated, 0 = no growth, -100 = all killed)
- runConditions: 10 µM unless noted
The panel holds about 83,000 compounds, 20% with a hit somewhere; the sample as a whole holds those more often.
growth values for the molecules below.
The response must be a number in % with no trailing unit.

These recorded examples may help you get a feel for the data.
COc1ccc(/C=C2/C(=O)NC(SCC(=O)N3CCN(c4cc5c(cc4F)c(=O)c(C(=O)O)cn5C4CC4)CC3)=NC2N)cc1OC (stereo not given); 104
CN(C)CCOC(=O)Nc1ccccc1Cl; 123
COc1ccc(C(=O)N2NC(=O)/C(=C/c3cn(-c4ccccc4)nc3-c3ccccc3)N=C2c2ccccc2)cc1; 108
FC(F)(F)c1ccccc1-c1cn2c(ccc3ccccc32)n1; 104

The recorded growth for O=C(NCc1cn(Cc2cccc(Oc3ccccc3)c2)nn1)c1cccnc1Nc1ccc(F)cc1 is 63.6

The recorded growth for OCCCCCCNc1ncnc2cc(Cl)ccc12 is 104

The recorded growth for CC(C)(C)c1[nH]nc2c1C(c1cc3ccccc3[nH]c1=O)Nc1cc(C(=O)Nc3ccc(Cl)cc3)ccc1N2 (stereo not given) is 83.8

The recorded growth for CCOC(=O)CC(=O)OC is 118

The recorded growth for Oc1ccccc1/C=N/NC(=S)NC1CC2C=CC1C2 (stereo not given) is 88.7

The recorded growth for CNc1ccc(Br)c2c1C(=O)c1ccccc1C2=O is 121
